Each recorded value in this set is attributed to ChEMBL document CHEMBL1201862.

assay: cytotoxicity toward NIH3T3 fibroblasts, dose response, counter-screen, cell-based, ATP luminescence, mouse fibroblasts (AID 2010); format: functional;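 note: cells exposed to compound for about 90 hours before reading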
Activity calls are given as the source filed them. Cut-off read from the data, not from the text of the source: actives have a measured EC50 and inactives only a lower limit.
reported-endpoint: EC50

{"compound": "CN1CCC(OC(=O)c2ccccc2Cl)CC1", "endpoint-value": "10.5 µM (active)"}

# EC50 lookup, item CC(C)NCC(O)COCCOc1ccc(Br)cc1 (stereo not given)
> 30 µM (not active)

# EC50 lookup, item `COc1cccc(CNC(=O)CN2CCC(c3nc4cc(C)ccc4[nH]3)CC2)c1`
> 60 µM (not active)

# EC50 lookup, item `CCN(CC)S(=O)(=O)c1cccc(N2C(=O)/C(=C\Nc3ccccc3C(=O)O)c3ccccc3C2=O)c1`
> 60 µM (not active)

# EC50 lookup, item `CC(C)(C)c1ccc(NC(=O)COc2ccc(-n3ccnc3)cc2)cc1`
> 60 µM (not active)
